Where these numbers come from: ChEMBL document CHEMBL1157539

tested on: Plasmodium falciparum; assay: GSK_TCMDC: Inhibition of Plasmodium falciparum 3D7 in whole erythrocytes, using parasite LDH activity as an index of growth.; type: functional, organism-based; details: Plasmodium falciparum, 3D7
property: XC50 (nM)
Only the number, expressed in nM, is required.

Inquiry: So what's the measured XC50 for this one? Cc1ccc(NC(=O)c2ccc(N3CCN(c4ccncc4)CC3)cc2)cc1F
Reply text: 736

Inquiry: So what's the measured XC50 for this one? Cc1cnc(CNCc2ccc(S(=O)(=O)Nc3ccc(Oc4cccc(Cl)c4)cc3)cc2)cn1
Reply text: 766

Inquiry: So what's the measured XC50 for this one? CCNc1cc(C(=O)N[C@@H](Cc2cc(F)cc(F)c2)[C@H](O)CNCc2cccc(C(F)(F)F)c2)cc(N2CCCCS2(=O)=O)c1
Reply text: 613
